- Test system: CD3+ BAL cells
- measurementNotes: Intracellular cytokine expression by CD3+ T cells following in vivo peptide treatment
- Set-up: species or system BALB/c mice
- particulars: day 3 pi
observationType: Total IC cytokine Expressing CD3^+ BAL cells (×10^3) ± SEM: IFNγ

| entrySequence | val |
| --- | --- |
| NKKPGKKTTTKP [RT34] | 43 ± 9.4 ×10^3 |
| TCWACKRIPNK (TCWAIACKRIPNK) [Δ − 1] | 47 ± 15 ×10^3 |
| TCAAACKRIPNKK [EYp1, 13-mer G glycoprotein peptide variant of RT33 with CAAAC motif] | 32 ± 7.3 ×10^3 |
| TCWAICKRIPNK [RT33] | 24 ± 5.6 ×10^3 |
| TCWAIACKRIPNK [Δ + 1] | 18 ± 2.2 ×10^3 |

* * *

- systemTested: Fkn binding to 293-CX3CR1 cells (Homo sapiens, UniProt P49238)
- Construct: host or cells: HEK 293 cells stably transfected with CX3CR1
- Sequence (P49238 whole entry): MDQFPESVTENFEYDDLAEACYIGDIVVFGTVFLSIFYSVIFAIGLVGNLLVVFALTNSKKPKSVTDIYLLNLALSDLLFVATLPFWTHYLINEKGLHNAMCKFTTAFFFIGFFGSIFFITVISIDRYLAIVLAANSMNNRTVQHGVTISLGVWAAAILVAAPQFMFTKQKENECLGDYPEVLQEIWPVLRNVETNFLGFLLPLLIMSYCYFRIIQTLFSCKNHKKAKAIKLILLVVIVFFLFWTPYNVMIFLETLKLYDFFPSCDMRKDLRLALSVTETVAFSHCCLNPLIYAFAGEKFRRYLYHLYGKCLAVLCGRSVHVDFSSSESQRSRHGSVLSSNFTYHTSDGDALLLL
- particulars: inhibitor 1 μM, no heparin
- Method: All binding studies were done on ice and either G glycoprotein or human Fkn (R&D Diagnostics, Minneapolis, Minn.) were diluted between 1 nM-100 nM in PBS (GIBCO) containing 1% bovine serum albumin (Sigma) and incubated with the 293-CX3CR1 cells or 293 control cells for 30 min at 4° C. […] For inhibition studies, 100 pM-1 μM human Fkn or G glycoprotein was preincubated with the cells for 30 min at 4° C. […]
Range of Inhibition (%) of Fkn binding reference
observationType: Range of Inhibition (%) of Fkn binding

| entrySequence | observationType | val |
| --- | --- | --- |
| TCWAIACKRIPNK [Δ + 1] | Range of Inhibition (%) of Fkn binding | 0-8% |
| TCWAICKRIPNK [RT33] | Range of Inhibition (%) of Fkn binding | 18-27% |
| TCWACKRIPNK (TCWAIACKRIPNK) [Δ − 1] | Range of Inhibition (%) of Fkn binding | 0-4% |
| VPCSICSNNPTC [RT32] | Range of Inhibition (%) of Fkn binding | 6-12% |
| NKKPGKKTTTKP [RT34] | Range of Inhibition (%) of Fkn binding | 6-14% |

Cited source for all entries: patent US8173131B2
